Test system: Fusarium culmorum
EXPERIMENT: Greenhouse Fusarium culmorum test in wheat, preventive
Assay type: in vivo
STATED_CONDITIONS: 24 h, read-out: Efficacy (% control), disease severity vs untreated check
OBSERVATION_TYPE: pest or weed control at 500 ppm

Give pest or weed control at 500 ppm only, for CCN(C)C=Nc1cc(C)c(Cc2ccccc2Cl)cc1C , using Fusarium culmorum data.
70 to 100%

Determine reported pest or weed control at 500 ppm for Cc1cc(N=CN(C)C(C)C)c(C)cc1Cc1ccccc1F ; test system: Fusarium culmorum.
70 to 100%

Please report pest or weed control at 500 ppm with Fusarium culmorum for item CCN(C)C=Nc1cc(C)c(Cc2ccc(S(C)(=O)=O)cc2)cc1C .
70 to 100%

GET pest or weed control at 500 ppm where system = Fusarium culmorum and item = CCN(C)C=Nc1cc(C)c(Cc2ccccc2Cl)cc1Cl
70 to 100%

System Fusarium culmorum. Read-out pest or weed control at 500 ppm. Item CCN(C)C=Nc1cc(C)c(Cc2cc(F)ccc2C)cc1C . Report value.
70 to 100%

Report pest or weed control at 500 ppm from Fusarium culmorum testing of CCN(C)C=Nc1cc(C)c(Cc2ccccc2)cc1C
70 to 100%

Provide Fusarium culmorum pest or weed control at 500 ppm reading for CCN(C)C=Nc1cc(C)c(C2(c3ccccc3)SCCS2)cc1C .
70 to 100%

# assay system Fusarium culmorum: give pest or weed control at 500 ppm of CCN(C)C=Nc1cc(C)c(Cc2cccc(Br)c2)cc1Cl
70 to 100%

Enter pest or weed control at 500 ppm (test system Fusarium culmorum) for CCN(C)C=Nc1cc(F)c(Cc2cccc(F)c2)cc1C
70 to 100%

Fill in: pest or weed control at 500 ppm on Fusarium culmorum, entry Cc1cc(N=CN2CCCCC2)c(C)cc1Cc1ccc(F)c(Cl)c1
70 to 100%

Find pest or weed control at 500 ppm for CCN(C)C=Nc1cc(C)c(Cc2ccccc2[N+](=O)[O-])cc1Cl on Fusarium culmorum and write it down.
70 to 100%
